# target_system: Peroxisome proliferator-activated receptor gamma (Homo sapiens) (UniProt P37231)
# settings: at 10 µM
Below, each entry is listed with its recorded Efficacy.
Numbers only; they are read as %.

Worked examples follow.
{"item_smiles": "CCCOc1cc(C)c2c(c1)CC[C@@](C)(CC/C=C(\\C)CC/C=C(\\C)C(=O)O)O2", "unit_abbreviation": "%", "observed": 88}
{"item_smiles": "COC(=O)/C(C)=C/CC/C(C)=C/CC[C@]1(C)CCc2cc(O)cc(C)c2O1", "unit_abbreviation": "%", "observed": 35}
{"item_smiles": "CCCOC(=O)/C(C)=C/CC/C(C)=C/CC[C@]1(C)CCc2cc(O)cc(C)c2O1", "unit_abbreviation": "%", "observed": 86}

Look up Efficacy: C/C(=C\CC[C@]1(C)CCc2cc(O)cc(C)c2O1)CC/C=C(\C)C(=O)O
95

Look up Efficacy: COC(=O)C(OC(=O)/C(C)=C/CC/C(C)=C/CC[C@]1(C)CCc2cc(OC)cc(C)c2O1)C(=O)OC
37

Look up Efficacy: COc1cc(C)c2c(c1)CC[C@@](C)(CC/C=C(\C)CC/C=C(\C)C(=O)O)O2
55

Look up Efficacy: COC(=O)COC(=O)/C(C)=C/CC/C(C)=C/CC[C@]1(C)CCc2cc(OC)cc(C)c2O1
24

----------
Below, each entry is listed with its recorded pEC50.
# target_system: Peroxisome proliferator-activated receptor alpha (Homo sapiens)
# Sequence (Q07869 whole entry): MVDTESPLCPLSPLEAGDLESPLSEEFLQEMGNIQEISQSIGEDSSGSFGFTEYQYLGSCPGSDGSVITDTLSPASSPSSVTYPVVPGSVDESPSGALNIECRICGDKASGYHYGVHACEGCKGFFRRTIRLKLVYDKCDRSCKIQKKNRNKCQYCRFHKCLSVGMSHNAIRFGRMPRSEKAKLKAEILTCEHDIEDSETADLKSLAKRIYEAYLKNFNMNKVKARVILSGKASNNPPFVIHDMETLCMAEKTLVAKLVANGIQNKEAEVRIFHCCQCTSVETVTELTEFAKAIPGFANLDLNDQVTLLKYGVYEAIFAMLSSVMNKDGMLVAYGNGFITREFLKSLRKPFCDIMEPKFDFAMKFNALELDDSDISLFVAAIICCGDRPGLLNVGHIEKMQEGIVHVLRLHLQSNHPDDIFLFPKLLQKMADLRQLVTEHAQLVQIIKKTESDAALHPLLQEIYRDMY
# procedure_summary: Agonist activity at human PPARalpha expressed in African green monkey COS7 cells assessed as increase in receptor transcriptional activity by luciferase reporter gene assay relative to WY-14643
# Type: cell-based
# settings: read-out: EC50
Kindly note that pEC50 refers to -log10 of the concentration in mol/L and answer with the value alone.

Worked examples follow.
{"item_smiles": "C/C(=C\\CC[C@]1(C)CCc2cc(O)cc(C)c2O1)CC/C=C(\\C)C(=O)O", "target_system": "Peroxisome proliferator-activated receptor alpha (Homo sapiens)", "observed": 6.74}
{"item_smiles": "COC(=O)C(OC(=O)/C(C)=C/CC/C(C)=C/CC[C@]1(C)CCc2cc(OC)cc(C)c2O1)C(=O)OC", "target_system": "Peroxisome proliferator-activated receptor alpha (Homo sapiens)", "observed": 5.79}

Look up pEC50: COc1cc(C)c2c(c1)CC[C@@](C)(CC/C=C(\C)CC/C=C(\C)C(=O)O)O2
6.00

Look up pEC50: CCCOc1cc(C)c2c(c1)CC[C@@](C)(CC/C=C(\C)CC/C=C(\C)C(=O)O)O2
6.00

----------
Below, each entry is listed with its recorded EC50.
# target_system: Peroxisome proliferator-activated receptor gamma (Homo sapiens)
# Sequence (P37231 whole entry): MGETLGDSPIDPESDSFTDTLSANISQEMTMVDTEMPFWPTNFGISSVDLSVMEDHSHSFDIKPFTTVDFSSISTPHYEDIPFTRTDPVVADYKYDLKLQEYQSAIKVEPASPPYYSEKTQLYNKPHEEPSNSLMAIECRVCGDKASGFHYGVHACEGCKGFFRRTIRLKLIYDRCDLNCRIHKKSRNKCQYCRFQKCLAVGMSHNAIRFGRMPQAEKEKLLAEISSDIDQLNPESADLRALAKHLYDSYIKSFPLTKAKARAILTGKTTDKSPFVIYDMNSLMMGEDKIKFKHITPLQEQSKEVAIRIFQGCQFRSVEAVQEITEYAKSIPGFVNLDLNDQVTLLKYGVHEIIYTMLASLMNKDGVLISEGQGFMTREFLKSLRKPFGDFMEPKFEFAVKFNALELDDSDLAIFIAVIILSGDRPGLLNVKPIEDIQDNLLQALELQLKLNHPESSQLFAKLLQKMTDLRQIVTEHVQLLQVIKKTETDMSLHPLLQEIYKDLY
# procedure_summary: Agonist activity at human PPARgamma expressed in African green monkey COS7 cells assessed as increase in receptor transcriptional activity by luciferase reporter gene assay relative to rosiglitazone
# Format: cell-based
# settings: read-out: EC50
Numbers only; they are read as nM.

Worked examples follow.
{"item_smiles": "C/C(=C\\CC[C@]1(C)CCc2cc(O)cc(C)c2O1)CC/C=C(\\C)C(=O)O", "EC50 (nM)": 84}
{"item_smiles": "CCCOC(=O)/C(C)=C/CC/C(C)=C/CC[C@]1(C)CCc2cc(O)cc(C)c2O1", "EC50 (nM)": 991}
{"item_smiles": "CCCOc1cc(C)c2c(c1)CC[C@@](C)(CC/C=C(\\C)CC/C=C(\\C)C(=O)O)O2", "EC50 (nM)": 1690}

The record that follows has no EC50 shown yet.
Look up EC50: COc1cc(C)c2c(c1)CC[C@@](C)(CC/C=C(\C)CC/C=C(\C)C(=O)O)O2
1000
